Assay: Quantitative High-Throughput drug screen in 47 multiple myeloma cell lines against the NCATS MIPE library collection: H1112_PLB cell viability assay (AID 1918967; note: nearly all actives have a fitted effect of over 30% in size)
Conditions: H1112 myeloma cells viability, ATP luminescence, 48 h; series mostly up to 45.8 µM
Results filed as inconclusive are left out. The source made the active and inactive calls. Calls come from the whole dose curve; as a rule, active = well fitted cell-killing curve with a large enough effect; inconclusive = small, poorly fitted or top-dose-only effect, or effect the other way; inactive = no such curve, though single readings can be large or run the other way.
Outcomes: Y (active), N (inactive)

# Molecule, Discrete Label
data = [
    ("C[C@]12CC[C@@H]3c4ccc(O)cc4CC[C@H]3[C@H]1[C@@H](O)[C@@H](O)[C@H]2O", "N"),
    ("CN1CC(=O)NC1=NC(=O)Nc1cccc(Cl)c1", "Y"),
    ("Cc1cc(CS(=O)(=O)c2ccccc2)cc(OCc2ccc(CN3CCC[C@H]3CO)cc2)c1", "Y"),
    ("NC(=O)c1noc([C@H](CCCC2CCCCC2)CC(=O)NO)n1", "Y"),
    ("CN(C)CCOc1cc(-c2cn[nH]c2)ccc1NC(=O)C1COc2ccccc2O1 (stereo not given)", "N"),
]
